SYSTEM_TESTED: PIK3CD (Human) (UniProt O00329)
Sequence (O00329 whole entry, looked up): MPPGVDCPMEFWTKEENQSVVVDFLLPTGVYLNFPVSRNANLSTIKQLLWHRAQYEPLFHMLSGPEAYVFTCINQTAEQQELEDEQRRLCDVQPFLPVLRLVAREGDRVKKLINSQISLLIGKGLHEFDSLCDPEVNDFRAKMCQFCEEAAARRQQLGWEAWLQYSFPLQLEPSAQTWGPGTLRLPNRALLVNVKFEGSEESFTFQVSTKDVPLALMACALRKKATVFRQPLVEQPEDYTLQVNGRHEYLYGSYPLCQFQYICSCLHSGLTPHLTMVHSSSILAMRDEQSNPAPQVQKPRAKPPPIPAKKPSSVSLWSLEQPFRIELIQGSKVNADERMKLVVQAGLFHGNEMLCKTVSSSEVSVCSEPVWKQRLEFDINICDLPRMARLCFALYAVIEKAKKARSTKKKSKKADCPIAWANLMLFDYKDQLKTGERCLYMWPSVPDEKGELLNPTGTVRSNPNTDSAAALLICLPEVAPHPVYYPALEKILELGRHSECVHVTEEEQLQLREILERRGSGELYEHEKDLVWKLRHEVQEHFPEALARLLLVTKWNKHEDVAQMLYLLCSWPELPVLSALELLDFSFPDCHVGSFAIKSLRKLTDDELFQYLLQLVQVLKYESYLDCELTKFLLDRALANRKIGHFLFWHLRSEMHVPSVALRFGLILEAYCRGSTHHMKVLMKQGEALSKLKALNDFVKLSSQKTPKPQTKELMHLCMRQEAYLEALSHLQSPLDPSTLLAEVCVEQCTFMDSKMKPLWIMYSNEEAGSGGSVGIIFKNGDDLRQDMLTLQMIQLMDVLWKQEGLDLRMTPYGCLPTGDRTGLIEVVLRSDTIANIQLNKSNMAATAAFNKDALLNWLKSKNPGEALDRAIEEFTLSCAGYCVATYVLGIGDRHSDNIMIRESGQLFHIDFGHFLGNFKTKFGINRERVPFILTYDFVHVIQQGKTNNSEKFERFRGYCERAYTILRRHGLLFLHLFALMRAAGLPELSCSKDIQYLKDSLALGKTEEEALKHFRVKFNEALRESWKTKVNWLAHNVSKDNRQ
pIC50: −log10 of the molar value.
Values of pIC50 greater than or equal to 8 map to 1.0; values below map to 0.0.

The following compounds have reported results that may help.
[
  {
    "COMPOUND": "CCn1ncc(-c2nc3c(O[C@H]4CCN(C(=O)OC(C)(C)C)C4)ncnc3n2C)c1C",
    "ASSIGNED_CLASS": 1.0
  },
  {
    "COMPOUND": "CCn1c(N(C)CC(C)C)nc2c(O[C@H]3CCN(C(=O)OC(C)(C)C)C3)ncnc21",
    "ASSIGNED_CLASS": 0.0
  },
  {
    "COMPOUND": "CCn1c(-c2cnc(C)nc2)nc2c(O[C@H]3CCN(c4nccs4)C3)ncnc21",
    "ASSIGNED_CLASS": 0.0
  }
]

Ask: Could you tell me if the measured pIC50 of CCn1ncc(-c2nc3c(OC4CCN(C(=O)CC5CCOCC5)C4)ncnc3n2C)c1C (stereo unspecified) reaches 8 or more?
Result: 0.0
